# System: Aβ secretion
# ASSAY_COMMENT: Secreted total Aβ ELISA in conditioned media of H4βAPP695 wt cells
# Format: cell-based, human
# CONDITION_LABEL: Homo sapiens, 24 h, 10 μM; relative to vehicle treated control cells; H4βAPP695 wt cells; read-out: % β Decrease
MEASURE_NAME: inhibition at 10 µM (%)
Supply the numeric figure in %, leaving out any unit text.

Example compounds with recorded inhibition at 10 µM:
chemical_structure=O=C(NCCSCc1ccccc1Cl)c1ccccc1Cl measure_name="inhibition at 10 µM" unit_text=% numeric_result=4
chemical_structure=O=C(NCCSCc1ccc(Cl)cc1)c1ccccc1Cl measure_name="inhibition at 10 µM" unit_text=% numeric_result=-12
chemical_structure=O=C(NCCCCNC(=O)c1ccccc1F)c1ccccc1F measure_name="inhibition at 10 µM" unit_text=% numeric_result=0.2
chemical_structure=O=C(NCCSCc1ccc(Cl)c(Cl)c1)c1ccc(Cl)cc1Cl measure_name="inhibition at 10 µM" unit_text=% numeric_result=4.3
chemical_structure=O=C(NCCCCNC(=O)c1ccccc1Br)c1ccccc1Br measure_name="inhibition at 10 µM" unit_text=% numeric_result=7.9

Q: Name the reported inhibition at 10 µM value associated with the compound O=C(NCCS(=O)(=O)Cc1ccc(F)cc1)c1c(F)cccc1Cl
Ans: 39.2

Q: Okay, and O=C(NCCSCc1cccc(Cl)c1)c1c(Cl)cccc1Cl ?
Ans: 75.3

Q: And O=C(NCCSCc1cccc(Cl)c1)c1ccccc1Cl ?
Ans: 4.7

Q: Now try O=C(NCCNC(=O)c1c(Cl)cccc1Cl)c1c(Cl)cccc1Cl .
Ans: 7.6

Q: Here is the next compound: Oc1c(Cl)cc(Cl)cc1/C=N/CCSCc1ccccc1Cl
Ans: 5.3

---

# Tested on: H4βAPP695 wt cells
# ASSAY_COMMENT: Cytotoxicity by total cell protein content (BCA) of H4βAPP695 wt cells
# CONDITION_LABEL: 10 μM; cytotoxicity
MEASURE_NAME: Cell protein (% decrease) 10 μM Mean (%)
A number alone suffices; assume %.

Worked examples, 3 molecules total:
molecule=O=C(NCCOCc1cccc(Cl)c1)c1c(Cl)cccc1Cl unit_text=% numeric_result=−9.9
molecule=COc1cccc(OC)c1C(=O)NCCSCc1cccc(Cl)c1 unit_text=% numeric_result=7.1
molecule=O=C(NCCSCc1ccccc1)c1c(Cl)cccc1Cl unit_text=% numeric_result=−1.1

# next molecule below
Q: // Cell protein (% decrease) 10 μM Mean lookup, key: O=C(NCC[S+]([O-])Cc1cccc(O)c1)c1c(Cl)cccc1Cl (centres unmarked)
Ans: 2.8

---

Let's look at some compounds and their measured inhibition at 30 µM.
# System: Aβ secretion
# ASSAY_COMMENT: Secreted total Aβ ELISA in conditioned media of H4βAPP695 wt cells
# Format: cell-based, human
# CONDITION_LABEL: Homo sapiens, 24 h, 30 μM; H4βAPP695 wt cells, 24 h; read-out: Total Aβ (% decrease) 30 μM Mean
# Experimental: H4βAPP695 wt cells, a human […] cell line stably transfected with a wtβAPP695 expression vector construct under the control of a CMV promoter (kindly provided by Dr. Chris Eckman from Mayo Clinic, Florida) were cultured as previously described. Twenty-four hours before drug treatment, the media was replaced with serum-free media. […] Transepithelial resistance was measured in each well and found to be >160 Ω/cm^2. […]
Reply with just the number (in %).

In the examples that follow, each entry is paired with its recorded inhibition at 30 µM.
compound="O=C(NCCSCc1cccc(Cl)c1)c1c(Br)cccc1Br [Compound 54]" numeric_result=83.4
compound="O=C(NCCSCc1ccccc1)c1ccccc1 [Compound 64, N-(2-Benzylsulfanyl-ethyl)-benzamide]" numeric_result=5.5
compound="COc1cccc(CSCCNC(=O)c2c(Cl)cccc2Cl)c1 [Compound 27]" numeric_result=73.9

Q: Fill blank: measured inhibition at 30 µM of the compound N=C(NO)c1cccc(CSCCNC(=O)c2c(Cl)cccc2Cl)c1 [Compound 39] is ____.
Ans: 1.6

Q: // query: O=C(NCCSCc1cccc(O)c1O)c1c(Cl)cccc1Cl [Compound 58]
Ans: 33.1

Q: And then NC(=O)c1cccc(CSCCNC(=O)c2c(Cl)cccc2Cl)c1 [Compound 45] , what is it?
Ans: 32.3

Q: Next up: COc1cccc(OC)c1C(=O)NCCSCc1cccc(Cl)c1 [Compound 36]
Ans: 11.2

Q: Then what about the compound O=C(NCCSCc1cccc(O)c1)c1c(Cl)cccc1Cl [Compound 29] ?
Ans: 67.7

Q: Now give it for O=C(NCCSCc1cccc(F)c1)c1c(F)cccc1F [Compound 46] too.
Ans: -15.5

---

# Test system: H4βAPP695 wt cells
# ASSAY_COMMENT: Cytotoxicity by total cell protein content (BCA) of H4βAPP695 wt cells
# CONDITION_LABEL: 10 μM; cytotoxicity
MEASURE_NAME: Cell protein (% decrease) 10 μM Mean (%)
Expressed in %, but write only the number.

Past entries and their recorded results:
molecule=CCOC(=O)c1cccc(CSCCNC(=O)c2c(Cl)cccc2Cl)c1 numeric_result=5.8
molecule=N#Cc1c(Cl)cccc1CSCCNC(=O)c1c(Cl)cccc1Cl numeric_result=3.5
molecule=O=C(NCCSCc1cccc(Br)c1)c1c(Cl)cccc1Cl numeric_result=12.3
molecule=O=C(Cc1c(Cl)cccc1Cl)NCCSCc1cccc(Cl)c1 numeric_result=−1.3
molecule=O=C(NCCSCc1ccc(Cl)cc1)c1c(Cl)cccc1Cl numeric_result=−6.4

Q: Suppose we examine the molecule Cc1cccc(C)c1C(=O)NCCSCc1cccc(Cl)c1 ; what Cell protein (% decrease) 10 μM Mean value has been reported?
Ans: 0.9

Q: Follow-up entry: O=C(NCCSCc1cccc(Cl)c1)c1ccccc1
Ans: 2.4

Q: // repeat for O=C(NCCSCc1cccc(Cl)c1)c1c(Br)cccc1Br and report
Ans: 6.7

Q: Another molecule to look at: O=C(NCCSCc1cccc(F)c1)c1c(F)cccc1F
Ans: 0.1

Q: Moving on to COc1cc(CSCCNC(=O)c2c(Cl)cccc2Cl)cc(OC)c1
Ans: 2

Q: COc1cccc(C[S+]([O-])CCNC(=O)c2c(Cl)cccc2Cl)c1 (stereo not shown) , same question.
Ans: 1.6

Q: Param item: O=C(NCCSCc1ccc(O)cc1)c1c(Cl)cccc1Cl
Ans: 8.7

Q: Now the molecule COc1cccc(CSCCNC(=O)c2c(Cl)cccc2Cl)c1
Ans: 8.4

Q: Please do the same for NC(=O)c1cccc(CSCCNC(=O)c2c(Cl)cccc2Cl)c1 as well.
Ans: −2.8

Q: How about this molecule: O=C(NCCSCc1cccc(Br)c1)c1c(Br)cccc1Br
Ans: 9.8

Q: Likewise for COc1ccc(CSCCNC(=O)c2c(Cl)cccc2Cl)cc1 ?
Ans: 6.7

Q: Okay, and O=C(NCCSCc1cccc(O)c1)c1c(O)cccc1O ?
Ans: 10.5

Q: Repeat with O=C(NCCSCc1cccc(Cl)c1)c1c(C(F)(F)F)cccc1C(F)(F)F
Ans: −4.2

Q: Please answer likewise for O=C(NCCSCc1cccc(O)c1)c1c(Cl)cccc1Cl
Ans: 6.3

---

# Test system: H4βAPP695 wt cells
# ASSAY_COMMENT: Cytotoxicity by total cell protein content (BCA) of H4βAPP695 wt cells
# CONDITION_LABEL: 30 μM; cytotoxicity
MEASURE_NAME: Cell protein (% decrease) 30 μM Mean (%)
Hi! Could you send only the number? It should be in %, unit omitted.

Here's what some known entries look like.
molecule="O=C(NCC[S+]([O-])Cc1cccc(Cl)c1)c1c(Cl)cccc1Cl (centres unmarked)" numeric_result=7.3
molecule=N=C(NO)c1cccc(CSCCNC(=O)c2c(Cl)cccc2Cl)c1 numeric_result=5.9
molecule=COc1cccc(CSCCNC(=O)c2c(Cl)cccc2OC)c1 numeric_result=9.3

Q: For the molecule Cc1cccc(CSCCNC(=O)c2c(Cl)cccc2Cl)c1 , what Cell protein (% decrease) 30 μM Mean is on record?
Ans: 16.6

Q: Also Nc1cccc(CSCCNC(=O)c2c(Cl)cccc2Cl)c1 ?
Ans: 13.1

Q: Entry to check: N#Cc1c(Cl)cccc1CSCCNC(=O)c1c(Cl)cccc1Cl
Ans: 1.3

---

# System: Caco-2 cells
# ASSAY_COMMENT: Epithelial transcellular transport of drug activity through Caco-2 monolayers
# Format: in vitro ADME
# CONDITION_LABEL: Homo sapiens, Caco-2, 10 μM drug alone added directly to H4βAPP695 wt cells; read-out: transcellular transport No total Aβ (% decrease)
Below, each entry is listed alongside its reported inhibition at 10 µM.
Reply with just the number (in %).

compound="O=C(NCCSCc1cccc(I)c1)c1c(Cl)cccc1Cl [Compound 53]" numeric_result=84.4
compound="O=C(NCCSCc1ccccc1Cl)c1c(Cl)cccc1Cl [Compound 76]" numeric_result=75.6

Q: Which measured inhibition at 10 µM value corresponds to O=C(NCCSCc1cccc(Cl)c1)c1c(Cl)cccc1Cl [Compound 1] ?
Ans: 69.4

Q: Field entry: COc1cc(Cl)cc(CSCCNC(=O)c2c(Cl)cccc2Cl)c1 [Compound 73]
Ans: 67.7

Q: And for O=C(NCCSCc1ccccc1)c1c(Cl)cccc1Cl [Compound 65] ?
Ans: 51.6

Q: Input COc1cccc(CSCCNC(=O)c2c(Cl)cccc2Cl)c1OC [Compound 52]
Ans: 57.8

Q: Also COc1cccc(CSCCNC(=O)c2c(Cl)cccc2Cl)c1 [Compound 27] ?
Ans: 60.6

Q: Lookup Cc1cccc(CSCCNC(=O)c2c(Cl)cccc2Cl)c1 [Compound 48]
Ans: 70.5
